test: Toxicity liver stage against HepG2, at 10uM; assay type: cell-based; set-up: test concentration 10 uM, cell line HepG2-A16-CD81EGFP; details: human, HepG2-A16-CD81EGFP cells; read-out: INHIBITION
Listed compounds paired with reported cytotoxicity at 10 µM
Give the quantity in %, number only.

CN(Cc1cc2n(n1)CCCN(C(=O)N1CCCC1)C2)Cc1nccs1 :: -0.63
Cc1cc2nc(C(C)C)cc(N3CCC(O)CC3)n2n1 :: -8.63
COc1cccc(COCC(O)CN2CC(n3cccn3)C2)c1 (configuration not stated) :: -8.52

Request: Which cytotoxicity at 10 µM value belongs to C[C@H]1C[C@@H]2CCN(C(=O)c3ccccn3)C[C@H]2O1 ?
Response: 4.17

Request: Give its cytotoxicity at 10 µM value. Item: CSC1(CNC(=O)N(C)Cc2ccc(C)s2)CCOCC1
Response: -46.5

Request: Could you tell me which cytotoxicity at 10 µM is on file for CS(=O)(=O)N1CCC2(CN(C(=O)c3cccnc3)C2)C1 ?
Response: -13

Request: Given the compound Cc1cnn(CCNCC(O)COc2ccc3ccccc3c2)c1 (configuration not stated) , what is its reported cytotoxicity at 10 µM?
Response: -6.31

Request: # lookup: cytotoxicity at 10 µM of CN1C(=O)CC(c2cnn(C)c2)C12CCN(C(=O)c1ccnnc1)CC2 (configuration not stated)
Response: -74.4

Request: So what's the measured cytotoxicity at 10 µM for this one? O=C(Nc1ccc(=O)n(Cc2ccccc2Cl)c1)C1CC1
Response: -6.57

Request: I'd like to know its cytotoxicity at 10 µM. The compound in question is COCCCNC(=O)CN(C)C(=O)c1cc(C)ccc1O
Response: -6.81

Request: Entry CC(=O)N1CCOCC(Cc2ccc3c(ccn3C)c2)C1 (configuration not stated) : reported cytotoxicity at 10 µM = ?
Response: 4.3

Request: # cytotoxicity at 10 µM lookup, item Cc1cc(C)nc(C2CCN(C(=O)CO)CC2)n1
Response: 2.53

Request: Can you look up the measured cytotoxicity at 10 µM of O=C(C1CCCOC1)N1CCCCc2ccccc21 (configuration not stated) for me?
Response: -5.51

Request: Any idea what cytotoxicity at 10 µM was measured for Oc1cc(C2CCCCN2Cc2ccsc2)nc(-c2ccncc2)n1 (configuration not stated) ?
Response: 9.89

Request: # get_value(readout='cytotoxicity at 10 µM', item= O=C(CSc1nncs1)N1CCN(Cc2ccc(Cl)cc2)CC1 )
Response: 21.9

Request: For CCN1CCOC(CNc2nccc(OC)n2)C1 (configuration not stated) , what is its reported cytotoxicity at 10 µM?
Response: -0.572

Request: Find the recorded cytotoxicity at 10 µM belonging to N#Cc1cccc(N2CCOC3(CNCCOC3)C2)n1 (configuration not stated) and report it.
Response: 2.61

Request: Consider the compound shown here: CC(=O)N1N=C(c2ccccc2)OC1C(=O)NCCc1ccc(C)cc1 (configuration not stated) What is its recorded cytotoxicity at 10 µM?
Response: 0.0915

Request: Find the recorded cytotoxicity at 10 µM belonging to CCS(=O)(=O)N1CCN(C(C)c2ncc(-c3ccccc3)o2)CC1 (configuration not stated) and report it.
Response: 3.44

Request: Query: cytotoxicity at 10 µM; subject: CN1CCN(Cc2cccc(NCc3cc[nH]n3)c2)CC1
Response: 11.2

Request: If you can, please state the reported cytotoxicity at 10 µM value of Cc1cc(CNC(=O)NCCC(=O)N2CCCc3ccccc32)no1 .
Response: -4.09

---

Property: cytotoxicity at 10 µM; scope: individual molecules
assay: Toxicity liver stage against HepG2, at 10uM; format: cell-based; set-up: test concentration 10 uM, cell line HepG2-A16-CD81EGFP; conditions: human, HepG2-A16-CD81EGFP cells; read-out: INHIBITION
# number only, unit % dropped from output

Below are worked cases with known answers.
CN(Cc1cc(=O)c(O)co1)C1CCN(c2ccc(F)cc2)CC1 :: -3.73
CC(NS(=O)(=O)CCc1ccccn1)c1ccccc1Br (stereo unspecified) :: -4.74
CN(C)CCN(C)C(=O)Cn1cccc2cc(-c3ccc(F)cc3)nc1-2 :: -24.4
CCOCCS(=O)(=O)c1nnc(NCCOC)s1 :: -7.18
COc1c(CNCCc2c[nH]c3cc(F)ccc23)c(C(C)C)nn1C :: 4.64
CCc1nccn1CC(=O)Nc1cccc(C(=O)OC)c1 :: -6.88
CC(=O)N1CC[C@]2(O)CCN(Cc3nc(C)c[nH]3)C[C@@H]2C1 :: -5.79
c1cc(C[C@H]2[C@H](N3CCOCC3)CCN2Cc2ccoc2)ccn1 :: 10.2
CCN(C(c1ccc(OC)cc1)c1cccnc1)S(C)(=O)=O (stereo unspecified) :: 9.62
COc1ccc(C(C)Nc2ncnc3c2NC(=O)CN3)cc1 (stereo unspecified) :: 7.83

Request: Which value of cytotoxicity at 10 µM has been reported for Cc1ccc2nc(C3CCN(CC4CC4)CC3)nn2c1 in the records?
Response: 0.806

---

experiment: Toxicity liver stage against HepG2, at 10uM; format: cell-based; parameters: test concentration 10 uM, cell line HepG2-A16-CD81EGFP; conditions: human, HepG2-A16-CD81EGFP cells; read-out: INHIBITION
Readout Label: cytotoxicity at 10 µM (%)
Value expressed in %; do not type the unit.

Recorded cytotoxicity at 10 µM, per entry:
Cc1occc1C(=O)N1C[C@@H]2CN(S(C)(=O)=O)CCO[C@@H]2C1 :: -2.63
CCC1CN(C(=O)c2ccc(O)cn2)CCC(=O)N1Cc1ccccc1 (stereo not drawn) :: 8.5

Pending compound:
Request: What value of cytotoxicity at 10 µM has been reported for the following compound? O=C(NC1CCN(c2cccc(C(F)(F)F)n2)CC1)C1CC1
Response: -0.432

---

experiment: Toxicity liver stage against HepG2, at 10uM; type: cell-based; set-up: test concentration 10 uM, cell line HepG2-A16-CD81EGFP; conditions: human, HepG2-A16-CD81EGFP cells; read-out: INHIBITION
Readout Label: cytotoxicity at 10 µM (%)
Give the number; % is assumed, so skip it.

Examples with their reported cytotoxicity at 10 µM follow.
O=C(c1cc[nH]n1)N1CCCC1c1ccccn1 (stereo not drawn) :: -22.5
CN(Cc1ccc(C(=O)O)cc1)C(=O)c1sccc1OC(F)F :: -6.59
CC(=O)N1CCN(Cc2cccc3c2sc2ccccc23)CC(O)C1 (stereo not drawn) :: -12.9
CNC(=O)C1CN(c2ccc(F)cc2)CCN1 (stereo not drawn) :: 7.9
O=C(CC(F)(F)F)N1CCc2onc(Cn3cccn3)c2C1 :: 0.635
Cc1ccc(S(N)(=O)=O)cc1C(=O)N1CCc2c(ncnc2N(C)C)C1 :: -2.71
CCc1cccc(NC(=O)NC2CCc3nc(C)nn3C2)c1 (stereo not drawn) :: -12.5
CCCC(C)NC(=O)c1ccc(-c2ccco2)[nH]c1=O (stereo not drawn) :: -20
O=C(NCC1CCN(Cc2cc3ccccc3[nH]2)C1)C1CCCCC1 (stereo not drawn) :: 9.81
CCn1ncc2c1CCCC2NCc1cscn1 (stereo not drawn) :: -2.42

Request: Bench note: what cytotoxicity at 10 µM did CC(C)c1cc(C(=O)NCCc2nc3c(s2)CCC3)n(C)n1 show?
Response: 54.2

Request: Recorded cytotoxicity at 10 µM of CSc1nccc(NCc2cc3n(n2)CCCN(S(C)(=O)=O)C3)n1 , please.
Response: 3.25

---

Readings of cytotoxicity at 10 µM for the listed molecules
test: Toxicity liver stage against HepG2, at 10uM; assay type: cell-based; parameters: test concentration 10 uM, cell line HepG2-A16-CD81EGFP; details: human, HepG2-A16-CD81EGFP cells; read-out: INHIBITION
I only need the number, in %, no unit after it.

COc1ccnc(N2CCN(C(=O)c3cnc(C4CC4)s3)CC2)n1 :: -5.35
O=C(C1CCCO1)N1CCC(c2nc(-c3ccccc3)n[nH]2)CC1 (stereo not drawn) :: -10.9

Let's switch to this molecule now.
Request: Value lookup for cytotoxicity at 10 µM; key = Cc1nc(C)c(C)c(N2CCC(NCCOc3ccccc3)CC2)n1
Response: -1.45

---

Let's look at some molecules and their measured cytotoxicity at 10 µM.
assay: Toxicity liver stage against HepG2, at 10uM; type: cell-based; design: test concentration 10 uM, cell line HepG2-A16-CD81EGFP; details: human, HepG2-A16-CD81EGFP cells; read-out: INHIBITION
Numeric answer only, unit % assumed.

Answered cases to consult:
NC1CCCN(Cc2cccc(C(F)(F)F)c2)C1=O (stereo not given) :: 5.85
COc1c(F)cccc1C(=O)NC(C)c1cnn(C)c1 (stereo not given) :: 24.5
CN(CC(O)COc1ccc(C(F)(F)F)cc1)C(=O)Nc1nncs1 (stereo not given) :: -11.1
C[C@@H]1C[C@H]2CN(Cc3nccs3)C[C@H]2O1 :: -1.22
O=C1CSc2ccc(C(=O)N3CCCC(n4cccn4)C3)cc2N1 (stereo not given) :: -6.65

Request: # get_value(readout='cytotoxicity at 10 µM', item= CCN1CCc2cc(-c3cncn3CCNC3CCS(=O)(=O)C3)ccc21 (stereo not given) )
Response: -1.59

Request: # lookup: cytotoxicity at 10 µM of Cc1cncc(C2CCCN(C(=O)c3cn(C)nc3C)C2)n1 (stereo not given)
Response: -7.91

Request: Need cytotoxicity at 10 µM of CN1C[C@H](O)[C@]2(CCN(C(=O)COc3ccccc3)C2)S1(=O)=O , thanks.
Response: 1.32

Request: Please report the recorded cytotoxicity at 10 µM for COc1ccc2c(c1)CCN(CCC(=O)NC1CCCCC1)CC2 .
Response: -11.4

Request: May I ask what cytotoxicity at 10 µM has been recorded for COC(=O)c1cc(NC2CCN(CC(F)(F)F)C2=O)ccc1C (stereo not given) ?
Response: -0.812

Request: Consider the molecule CN1CCN(C2CCN(CC(=O)NCC(F)(F)F)CC2)C1=O and give its measured cytotoxicity at 10 µM.
Response: -9.78

Request: // lookup cytotoxicity at 10 µM for COc1ccccc1S(=O)(=O)CCOC(C)C
Response: 6.24

Request: Requested field: cytotoxicity at 10 µM. Item: CC(C)N(CCCNC(=O)C1CCCN(C(N)=O)C1)S(C)(=O)=O (stereo not given)
Response: -8.51

Request: Look up cytotoxicity at 10 µM for this molecule: Cn1cc(CNC2CCC(O)CC2)c(-c2cc3ccccc3o2)n1 (stereo not given)
Response: -48

Request: Given Cc1nc(C)n(C2CCCN(C(=O)CCCOc3ccccc3)C2)n1 (stereo not given) , state its recorded cytotoxicity at 10 µM.
Response: -12.7
